# test: small-molecule microarray binders of probe aNog, primary screen, biochemical, biotinylated probe, 635/667 nm fluorescence (AID 1115);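 note: probe is biotinylated aNog protein used at 0.15 µg/mL for 1 h at 4 C; z-score combines 667 nm fluorescence of each spot with its signal to noise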
# reported.conditions: higher = more signal
Definition: the class of an entry is the range in bin 0: < -0.2; bin 1: ≥ -0.2 and < -0.09; bin 2: ≥ -0.09 that contains its composite z-score.

>>> class_name("CCOC(=O)NN=C1C[C@@H](O)[C@@H](O)[C@@H]2[C@@H]3C(=O)N([C@@H](C)c4ccccc4)C(=O)[C@@H]3CC[C@@H]12")
"bin 1"
>>> class_name("Cc1ccc(S(=O)(=O)OC[C@H]2CN3[C@H](c4ccc(Br)cc4)[C@@H](C)CC[C@H]3C(=O)O2)cc1")
"bin 1"
>>> class_name("COC(=O)CC=C[C@@H](C)[C@@H](C=NO[C@@H]1O[C@H](COC(C)=O)[C@@H](OC(C)=O)[C@H](OC(C)=O)[C@H]1OC(C)=O)NS(=O)(=O)c1ccc(C)cc1")
"bin 1"
>>> class_name("COc1cccc([C@H]2Oc3ccc(OC)cc3C(=NOC[C@@H](O)COCc3ccco3)[C@@H]2O)c1")
"bin 0"
>>> class_name("COc1cccc([C@H]2Oc3ccc(OC)cc3C(=NOC(C)CN3CCCCc4nc(C)c(C)cc43)[C@@H]2O)c1 (some centres undefined)")
"bin 0"
>>> class_name("COC(=O)CC=C[C@@H](C)[C@@H](C=NO[C@@H](C)c1cc(-c2c(C)cc(C)cc2C)no1)NS(=O)(=O)c1ccc(C)cc1")
"bin 2"
>>> class_name("CO[C@H]1COC(=O)CC=C[C@@H](C)[C@H](OC)COC(=O)CCC[C@@H]1C")
"bin 0"
>>> class_name("CCOC(=O)[C@H](Cc1ccccc1)NC(=O)CCC1CC(OC(=O)NCCc2ccc(F)cc2)CC2(CCCC(COC(=O)NCCc3ccc(Cl)cc3)O2)O1 (some centres undefined)")
"bin 2"
>>> class_name("C=CC1=C[C@H](O)[C@@H]2O[C@@H]2C12OCCCO2")
"bin 1"
>>> class_name("COC(=O)[C@@H]1CC[C@H](C)[C@@H](c2ccc(C)cc2)N1C(=O)c1ccc(C=NOC[C@@H](C)[C@H](OCc2ccccc2)C(C)C)cc1")
"bin 0"
>>> class_name("O=C1C[C@@H](O)[C@@H](O)[C@@H]2[C@@H]3C(=O)N(Cc4ccccc4)C(=O)[C@@H]3CC[C@@H]12")
"bin 2"
>>> class_name("CCCNC(=O)OC[C@H]1O[C@H](CCON=C(C)C)C=C[C@@H]1Oc1ccc(OC)cc1")
"bin 1"
>>> class_name("C[C@H]1COC(=O)[C@@H]2CCCN2C(=O)[C@@H](C)COC(=O)[C@H](Cc2ccccc2)NC1=O")
"bin 0"
>>> class_name("COc1cccc([C@H]2Oc3ccc(OC)cc3C(=NOC[C@@H](C)[C@H](OCc3ccccc3)C(C)C)[C@@H]2O)c1")
"bin 2"
>>> class_name("O=C(NN=C1C[C@@H](O)[C@@H](O)[C@@H]2[C@@H]3C(=O)N(C[C@@H]4CCCO4)C(=O)[C@@H]3CC[C@@H]12)OCc1ccccc1")
"bin 1"
>>> class_name("CC(CCN1CCCc2nc(C)c(C)cc21)=NO[C@@H](C)c1cc(-c2c(C)cc(C)cc2C)no1")
"bin 2"
>>> class_name("C=CC[C@@H]1C=C[C@H](ON=C[C@@H](C)[C@H](OCc2ccccc2)C(C)C)[C@@H](CO)O1")
"bin 0"
>>> class_name("O=C(NN=C1C[C@@H](O)[C@@H](O)[C@@H]2[C@@H]3C(=O)N(C4CCCCC4)C(=O)[C@@H]3CC[C@@H]12)OCc1ccccc1")
"bin 2"
